assay: Solubility of the compound by high throughput solubility assay; type: physicochemical
The compounds listed here are annotated with their solubility.

Example entries and their recorded answers appear below.
C[C@@H]1CN2c3c(cc4c(-n5cc(C#N)cn5)noc4c3F)CC3(C(=O)NC(=O)NC3=O)[C@H]2[C@H](C)O1 = 10 µM
C[C@@H]1CN2c3c(cc4c(-n5cncn5)noc4c3Cl)CC3(C(=O)NC(=O)NC3=O)[C@H]2[C@H](C)O1 = 420 µM
CNS(=O)(=O)c1cnn(-c2noc3c(F)c4c(cc23)CC2(C(=O)NC(=O)NC2=O)[C@H]2[C@H](C)O[C@H](C)CN42)c1 = 21 µM
COCCNc1ncnn1-c1noc2c(F)c3c(cc12)CC1(C(=O)NC(=O)NC1=O)[C@H]1[C@H](C)O[C@H](C)CN31 = 6 µM

// lookup solubility for CNc1ncnn1-c1noc2c(F)c3c(cc12)CC1(C(=O)NC(=O)NC1=O)[C@H]1[C@H](C)O[C@H](C)CN31
280 µM

// lookup solubility for C[C@@H]1CN2c3c(cc4c(-n5ncnc5NCCN5CCOCC5)noc4c3F)CC3(C(=O)NC(=O)NC3=O)[C@H]2[C@H](C)O1
150 µM
